- TARGET OR TEST SYSTEM: Fc-0447 1-60 (human) (UniProt Q9UBP8)
- PROTOCOL NOTES: ELISA
Let's look at some binders and their measured OD450.
MEASURED QUANTITY: OD450

INSERT INTO assay_data (binder, quantitative_readout) VALUES
  ('3D3 mouse anti-KAAG1 Fab (Fab, V domains shown) VH: EVQLQQSVAELVRPGASVTLSCKASGYIFTDYEIHWVKQTPVHGLEWIGVIDPETGNTAFNQKFKGKATLTADISSSTAYMELSSLTSEDSAVYYCMGYSDYWGQGTTLTVSS VL: DIVMTQSPSSLAVSIGQKVTMNCKSSQSLLNSNFQKNFLAWYQQKPGQSPKLLIYFASTRESSIPDRFIGSGSGTDFTLTISSVQAEDLADYFCQQHYSTPLTFGAGTKLELK', 1.33),
  ('A9 (Fab, V domains shown) VH: QVQVQQPGAELVRPGASVTLSCKASGYIFTDYEVHWVRQRPVHGLEWIGVIDPETGDTAYNQKFKGKATLTADKSSSTAYMELSSLTAEDSAVYYCIGYADYWGQGTTLTVSS VL: DIVMTQSPSSLAMSLGQKVTMSCKSSQSLLNSNNQLNYLAWYQQKPGQSPKLLVYFASTRKSGVPDRFIGSGSGTDFTLTITSVQAEDLADYFCQQHFNTPLTFGAGTKLELK', 2.29),
  ('3C4 mouse anti-KAAG1 Fab (Fab, V domains shown) VH: EVQLQESGPDLVKPSQSLSLTCTVTGFSITSGYGWHWIRQFPGNKLEWMGYINYDGHNDYNPSLKSRISITQDTSKNQFFLQLNSVTTEDTATYYCASSYDGLFAYWGQGTLVTVSA VL: DIVMSQSPSSMYASLGERVTITCKASQDIHNFLNWFQQKPGKSPKTLIFRANRLVDGVPSRFSGSGSGQDYSLTISSLEFEDLGIYSCLQYDEIPLTFGAGTKLELR', 0.57);
